Values were extracted from ChEMBL document CHEMBL1201862.

tested on: HCT-116; assay: NCI tumour cell line growth inhibition, 48 h
Activity calls are given as the source filed them. Cut-off read from the data, not from the text of the source: active = GI50 up to about 1.1 µM and inactive = higher. Residues, ends and D or L forms follow the SMILES beside them. *: point of attachment. Boc = CC(C)(C)OC(=O)*; OBn = c1ccc(CO*)cc1
ASSAY ENDPOINT: GI50

COMPOUND | ASSAY ENDPOINT | OBSERVED
O=C1CCCCCCCCCCOC(=O)CCCCCCCCCCO1 | GI50 | > 100 µM (inactive)

GI50 reported for this compound CSc1ccc(/C=C2\N=C(c3ccccc3)N(c3nc4c(Cl)cc(Cl)cc4s3)C2=O)cc1 : 19.1 µM (inactive)

GI50 reported for this compound O=c1cc(N2CCCC2)[nH]c(=O)n1-c1ccc(Cl)cc1 : > 100 µM (inactive)

GI50 reported for this compound c1ccc(-c2cc(-c3cccs3)c(-c3cccs3)s2)cc1 : 19.6 µM (inactive)

GI50 reported for this compound CC(NC(=O)CNC(=O)OC(C)(C)C)C(=O)NC(Cc1ccccc1)C(=O)OCc1ccccc1 (stereo not drawn) (Boc-Gly-Ala-Phe-OBn; configuration not given here) : 14.9 µM (inactive)

* * *

system: NCI-H460; experiment: NCI tumour cell line growth inhibition, 48 h
Active and inactive are the calls of the source. Rule as the data show it: active = GI50 up to about 1.1 µM and inactive = higher.
ASSAY ENDPOINT: GI50

MOLECULE | ASSAY ENDPOINT | OBSERVED
CCOC(=O)C1=C(NC(C)(C)C)OC/C1=N\NC(=O)Cc1ccccc1 | GI50 | > 100 µM (inactive)
Cc1ccc(S(=O)(=O)C2c3nc4ccccc4cc3-c3nc4ccccc4nc32)cc1 (stereo not given) | GI50 | > 10 µM (inactive)
COc1ccc(-c2c(-c3ccccc3)c(C)c3ccccn23)cc1 | GI50 | 59.2 µM (inactive)
Cn1cc2ccccc2c1-c1nc(F)nc(Oc2ccc3c(c2)CC[C@@H]2C3CC[C@@]3(C)C2C[C@H](O)[C@@H]3O)n1 (stereo not given in full) | GI50 | 30.9 µM (inactive)
O=C(O)c1ccccc1C(=O)Nc1cc2c(cc1Br)-c1ccccc1C2=O | GI50 | > 100 µM (inactive)
O=C1CC(CC(=O)c2ccc(Br)cc2)C(O)=C1C(=O)c1ccc(Br)cc1 (stereo not given) | GI50 | 50.7 µM (inactive)

Now turn to the next molecule.
GI50 reported for this molecule [O-][S+]1c2ccccc2N=C(c2ccc3ccccc3c2)CC1c1ccccc1F (stereo not given) : > 100 µM (inactive)

* * *

tested on: MDA-MB-231; assay: NCI tumour cell line growth inhibition, 48 h
The source made the active and inactive calls. Cut-off read from the data, not from the text of the source: active = GI50 up to about 1.1 µM and inactive = higher.
Listed compounds paired with reported GI50

Consider the reported GI50 for these compounds:
COMPOUND | GI50
COC1(OC)C=CC2C1C1C=CC2C1(OC)OC (centres undefined) | > 100 µM (inactive)
Nc1ccc(Oc2ccc(C34CC5CC(C3)CC(c3ccc(Oc6ccc(N)cc6)cc3)(C5)C4)cc2)cc1 | 11.1 µM (inactive)
COc1ccc(/N=N/C(=N/NC(=O)c2ccccc2)c2ccc(N(CCC#N)CCC#N)cc2C)cc1 | 50.9 µM (inactive)

Now turn to the next compound.
GI50 reported for this compound O=CC1OC(=O)c2cc(O)c(O)c(O)c2-c2c(cc(O)c(O)c2O)C(=O)OC1C1OC(=O)c2cc(O)c(O)c(O)c2-c2c(O)c(O)c3oc(=O)c4c(c(O)c(O)c5oc(=O)c2c3c54)-c2c(cc(O)c(O)c2O)C(=O)OCC1O (centres undefined) : 13.9 µM (inactive)

* * *

Listed molecules paired with reported GI50
system: NCI-H460; assay: NCI tumour cell line growth inhibition, 48 h
Active and inactive are the calls of the source. No stated cut-off is given here; in the data, active = GI50 up to about 1.1 µM and inactive = higher.

MOLECULE | TGT | OBSERVED
CCc1nn(CN2CCOCC2)c(=S)n1/N=C/c1ccc(-c2ccc(Cl)cc2)o1 | NCI-H460 | > 100 µM (inactive)
COc1ccc(CCn2c(=O)c3ccccc3n(C)c2=O)cc1 | NCI-H460 | 60.1 µM (inactive)
CCOC(=O)C(NO)C(Sc1ccccc1)c1ccc(OC)cc1 (stereo unspecified) | NCI-H460 | 44.4 µM (inactive)
Clc1sc(Cl)c2c1[C@H](Br)C[C@@H]2Cl | NCI-H460 | 41.6 µM (inactive)
COC(=O)C1(Cc2ccccc2)Cc2ccccc2C1O (stereo unspecified) | NCI-H460 | > 100 µM (inactive)

NCI-H460 data for CCOC(O)C(F)(F)F (stereo unspecified) ; its GI50: > 100 µM (inactive)

* * *

system: OVCAR-3; experiment: NCI tumour cell line growth inhibition, 48 h
The source made the active and inactive calls. No stated cut-off is given here; in the data, active = GI50 up to about 1.1 µM and inactive = higher.
Listed compounds paired with reported GI50

Consider the reported GI50 for these compounds:
COMPOUND | GI50
COc1cc([C@@H]2OCC3C(c4ccc5c(c4)OCO5)OCC32)cc(OC)c1OC (stereo not given in full) | > 100 µM (inactive)
O=C1CCC(=O)N1CNc1ccc2c(c1)S(=O)(=O)c1ccccc1O2 | > 100 µM (inactive)
CCC(C)[C@H](NC(=O)N[C@H](C)c1ccccc1)C(=O)OC (stereo not given in full) | > 100 µM (inactive)
C[C@H]1/C(=C/C(=O)OCCN(C)C)CC[C@H]2[C@H]1C(=O)C[C@H]1C(C)(C)[C@@H](O)CC[C@]21C | > 100 µM (inactive)
COc1ccc(-c2c(-c3ccccc3)c(C)c3ccccn23)cc1 | > 100 µM (inactive)
CCc1nn(CN2CCOCC2)c(=S)n1/N=C/c1ccc(-c2ccc(Cl)cc2)o1 | > 100 µM (inactive)
Clc1ccc(-c2cn3c(nc4ccccc43)c(-c3ccccc3)n2)cc1 | 27.7 µM (inactive)
CC(=O)OCc1cn(S(=O)(=O)c2ccc(C)cc2)cn1 | 24.2 µM (inactive)

GI50 reported for this compound COc1cccc(/C=C/c2ccc(S(N)(=O)=O)cc2)c1 : 5.31 µM (inactive)

GI50 reported for this compound NC(=O)NC(=O)c1cnccn1 : > 100 µM (inactive)

* * *

system: M14; test: NCI tumour cell line growth inhibition, 48 h
Calls of active or inactive are those of the source. Rule as the data show it: active = GI50 up to about 1.1 µM and inactive = higher.
ASSAY ENDPOINT: GI50

Consider the reported GI50 for these molecules:
MOLECULE | OBSERVED
O=C1CCN2C(=Nc3cccc4cccc2c34)N1 | > 100 µM (inactive)
O=C(OCCN=c1c2ccccc2ccc2ccccc12)c1ccc([N+](=O)[O-])cc1 | > 100 µM (inactive)
Cn1c(=O)n2n(c1=O)C(C)(C13CC4CC(CC(C4)C1)C3)C13CC4CC(CC1C4)CC23 (stereo not given) | > 100 µM (inactive)

GI50 reported for this molecule COC(=O)C(C(=O)C(=O)Nc1cccc([N+](=O)[O-])c1)c1nc2ccc([N+](=O)[O-])cc2nc1O (stereo not given) : > 100 µM (inactive)

GI50 reported for this molecule COc1ccc2c(c1)-c1[nH]c3ccc(OC)cc3c1CC2 : 15 µM (inactive)

* * *

Listed compounds paired with reported GI50
test system: OVCAR-8; assay: NCI tumour cell line growth inhibition, 48 h
Active and inactive are the calls of the source. No stated cut-off is given here; in the data, active = GI50 up to about 1.1 µM and inactive = higher.

Consider the reported GI50 for these compounds:
COMPOUND | GI50
O=C1OCC=C1COC1OC(CO)C(O)C(O)C1O (stereo not given) | > 100 µM (inactive)
CC(=O)O[C@H]1CC[C@@]2(C)C(=CC[C@@H]3C2CC[C@]2(C)Nc4oncc4CC32)C1 (stereo not given in full) | 34.6 µM (inactive)
NNC(=O)CCC(NS(=O)(=O)c1ccc(Cl)cc1)C(=O)NN (stereo not given) | > 100 µM (inactive)
c1c[nH]c(CN2CCN(Cc3ncc[nH]3)CC2)n1 | > 100 µM (inactive)

Now turn to the next compound.
GI50 reported for this compound CC1=CC(O)CC(C)(C)C1/C=C/C(C)=C/C=C/C(C)=C/C=C/C=C(C)/C=C/C=C(C)/C=C/C1=C(C)CC(O)CC1(C)C (stereo not given) : 19.7 µM (inactive)

* * *

test system: SK-OV-3; assay: NCI tumour cell line growth inhibition, 48 h
Active and inactive are the calls of the source. Cut-off read from the data, not from the text of the source: active = GI50 up to about 1.1 µM and inactive = higher.
ASSAY ENDPOINT: GI50

COMPOUND | TGT | OBSERVED
COc1ccc2c(c1)-c1[nH]c3ccc(OC)cc3c1CC2 | SK-OV-3 | 18.6 µM (inactive)
COC1CC(C)(NC(=O)C(F)(F)F)C2OC(c3ccccc3)OCC2O1 (centres undefined) | SK-OV-3 | > 100 µM (inactive)
O=S(=O)(O)c1cc(O)c(/N=N\C2S(=O)(=O)OCCOS2(=O)=O)c2ccccc12 | SK-OV-3 | > 100 µM (inactive)
O=C1C[C@H](CCC(=O)OCc2ccccc2)NC(=O)C[C@H](CCC(=O)OCc2ccccc2)NC(=O)C[C@H](CCC(=O)OCc2ccccc2)N1 | SK-OV-3 | 5.92 µM (inactive)
N=c1oc2ccccc2cc1C(=O)Nc1ccccn1 | SK-OV-3 | > 100 µM (inactive)
C=CCCCCCCCC(O)C1C[C@H](O)C(CCCCC)O1 (some centres undefined) | SK-OV-3 | 20.4 µM (inactive)
Cc1ccc(C2=Nc3ccccc3SC(c3cccc4c3OCO4)C2)cc1 (centres undefined) | SK-OV-3 | 35.8 µM (inactive)
CC1N=C(c2ccccc2)OC1=O (centres undefined) | SK-OV-3 | > 100 µM (inactive)

GI50 reported for this compound CCOC(=O)CC(NCc1ccc(/N=C/c2nc3ccc(C(F)(F)F)cc3nc2-c2ccccc2)cc1)C(=O)OCC (centres undefined) : 29 µM (inactive)

GI50 reported for this compound O=C(O)c1c[nH]c2c(ccc3ncccc32)c1=O : > 100 µM (inactive)

GI50 reported for this compound O=C(CNc1c(Cl)cccc1Cl)NC1C=Cc2ccc(S(=O)(=O)Nc3c(Cl)cccc3Cl)cc2C1=O (centres undefined) : > 100 µM (inactive)

GI50 reported for this compound CC(NNC(=O)c1cc[n+]([BH2-]C#N)cc1)c1ccc(Cl)c(Cl)c1 (centres undefined) : 27 µM (inactive)

GI50 reported for this compound O=C(Nc1ccc2[nH]c(C(=O)N3CC(CCl)c4c3cc([N+](=O)[O-])c3ccccc43)cc2c1)Nc1ccc2[nH]c(C(=O)N3CC(CCl)c4c3cc([N+](=O)[O-])c3ccccc43)cc2c1 (centres undefined) : > 100 µM (inactive)

GI50 reported for this compound CC(C)c1cccc(C(C)C)c1NC1=CC(=O)C(=O)c2ccccc21 : > 100 µM (inactive)

GI50 reported for this compound CC(=O)OC1C(=O)C(O)C(C)OC1O[C@@H]1C[C@@]2(C)[C@@H]3CC=C4[C@@H](C[C@H](O)C(=O)C4(C)C)[C@]3(C)C(=O)C[C@]2(C)[C@H]1[C@@](C)(O)C(=O)/C=C/C(C)(C)O (some centres undefined) : 3.06 µM (inactive)

GI50 reported for this compound CC(=O)OC1CC2C(C)(C)C(=O)C=C[C@]2(C)C2CCC3(C)C(c4ccoc4)C(=O)C4OC43[C@]12C (some centres undefined) : 13.2 µM (inactive)

GI50 reported for this compound CC(C)(C)C(=O)OC12/C(=N/O)CCCCCC1c1ccccc12 (centres undefined) : 18.7 µM (inactive)

GI50 reported for this compound Cc1ccc(C(O)(c2ccc(C)cc2)c2ccccn2)cc1 : > 100 µM (inactive)

GI50 reported for this compound O=[N+]([O-])c1ccc(-c2csc(=[N+]3CCCCC3)s2)cc1 : 37.7 µM (inactive)
